# Tested on: HEK293T-Rex ERSE-FLuc
# protocol.text: ERSE-FLuc reporter activation, triplicate confirmation, relative to 500 nM thapsigargin (% of thapsigargin); higher = stronger ATF6/ERSE reporter activation
# condition.summary: 6.8 µM; 18 h; screen: confirmation
recorded.endpoint: ERSE-FLuc reporter activation
Answer field: number only, no words.

**Q:** Which ERSE-FLuc reporter activation value is on record for Cc1cnc(NC(=O)c2sc3nc4c(C)cccc4cc3c2N)s1 ?
**A:** 28.6

**Q:** Query (compound): Cc1ccc(O)c(NC(=O)c2cc(-c3cccnc3)on2)c1 ; field requested: ERSE-FLuc reporter activation
**A:** 70

**Q:** Looking for the measured ERSE-FLuc reporter activation of O=C(c1ccccc1)c1c(O)ccc2c(C(=O)c3ccccc3)c(O)ccc12 , can you help?
**A:** 39.3

**Q:** Dear colleague, I am looking for the recorded ERSE-FLuc reporter activation of the following compound: Cc1ccc(C(=O)Nc2sc3c(c2C#N)CCC3)cc1
**A:** 27.4

**Q:** What does the data say about its ERSE-FLuc reporter activation? Entry: O=C(N/N=C/c1ccc(Cl)cc1Cl)c1ccc(O)c(O)c1
**A:** 25.8

**Q:** What value of ERSE-FLuc reporter activation has been reported for the following compound? COc1ccc(/C=C(\C#N)c2nc(-c3ccco3)cs2)cc1O
**A:** 35.1

* * *

# System: HEK293T-Rex ERSE-FLuc
# protocol.text: ERSE-FLuc reporter activation, triplicate confirmation, relative to 500 nM thapsigargin (% of thapsigargin); higher = stronger ATF6/ERSE reporter activation
# condition.summary: 6.8 µM; 18 h; screen: confirmation
recorded.endpoint: ERSE-FLuc reporter activation
Lab note: jot the number down without any unit.

**Q:** GET /values?readout=ERSE-FLuc reporter activation&item= Nc1c(C(=O)Nc2ccccc2)sc2nc3c(cc12)CCCCC3
**A:** 35.6

**Q:** Requested field: ERSE-FLuc reporter activation. Item: O=C(/C=C/c1ccco1)Nc1ccccn1
**A:** 27.7

**Q:** Bench note: what ERSE-FLuc reporter activation did CCOc1cccc(C(=O)Nc2ccc(Br)cn2)c1 show?
**A:** 26

**Q:** Given CCCCNC(=O)c1cc(-c2cccs2)on1 , state its recorded ERSE-FLuc reporter activation.
**A:** 65.1

**Q:** What value of ERSE-FLuc reporter activation has been reported for the following molecule? O=C(NC1CCCC1)c1cc(-c2cccs2)on1
**A:** 25.7

**Q:** Need ERSE-FLuc reporter activation, item Cc1ccc(O)c(NC(=O)CCc2ccccc2)c1
**A:** 63.2

**Q:** So what does the record say about ERSE-FLuc reporter activation for COc1ccc(N(C(=O)c2ccccc2)S(=O)(=O)c2cc(OC)ccc2OC)cc1 ?
**A:** 103

**Q:** I have this molecule here, Cc1ccc2nc(/C(C#N)=C\c3cc(Cl)cc4c3OCOC4)[nH]c2c1 , and I need its recorded ERSE-FLuc reporter activation.
**A:** 51.3

**Q:** What measured ERSE-FLuc reporter activation goes with Cc1ccc(O)c(NC(=S)NC(=O)/C=C/c2ccco2)c1 ?
**A:** 27

**Q:** So what's the measured ERSE-FLuc reporter activation for this one? CCCNc1ccnc(N2CCc3ccccc3C2)n1
**A:** 25.7

**Q:** Reported ERSE-FLuc reporter activation, molecule Oc1ccc(-c2cnc3c(Nc4ccc5[nH]ccc5c4)nccn23)cc1 : ____
**A:** 35.7

**Q:** Reported ERSE-FLuc reporter activation, molecule Cc1ccccc1NC(=O)c1sc2nc(N)c(C#N)c(-c3ccc(C(C)C)cc3)c2c1N : ____
**A:** 36.7

**Q:** Which ERSE-FLuc reporter activation reading was recorded for the molecule COc1cc2ccccc2cc1C(=O)N/N=C/c1cccs1 ?
**A:** 25.7

**Q:** Return reported ERSE-FLuc reporter activation; argument: O=C(NCCCn1ccnc1)c1cc(-c2cccs2)on1
**A:** 42.5

**Q:** Looking for the measured ERSE-FLuc reporter activation of COc1cccc(-c2cc(C(=O)Nc3cc(C)ccc3O)no2)c1 , can you help?
**A:** 43.9

**Q:** May I ask what ERSE-FLuc reporter activation has been recorded for CC1(C)Cc2ccccc2/C(=C/C(=O)C(=O)N/N=C/c2ccc(O)c(O)c2)N1 ?
**A:** 30.1

**Q:** Please report the recorded ERSE-FLuc reporter activation for COc1ccccc1-c1cnnc(N/N=C/c2c[nH]c3ccccc23)n1 .
**A:** 37.9

**Q:** Please report the recorded ERSE-FLuc reporter activation for CCN1C(=O)/C(=C\c2ccc(O)cc2O)SC1=S .
**A:** 36.3

**Q:** Could you share which ERSE-FLuc reporter activation value was measured for O=C(NC(c1ccccc1)c1ccccc1)c1csc(-c2cnccn2)n1 ?
**A:** 30.5

**Q:** Would you mind telling me what ERSE-FLuc reporter activation value was observed for CC(=O)Oc1ccc(C(=O)OCc2ccc(Cl)cc2)cc1OC(C)=O ?
**A:** 35.9

**Q:** Suppose we examine the molecule CC(=O)Oc1ccc2cc(NC(=O)c3ccc(C)cc3)c(=O)oc2c1 ; what ERSE-FLuc reporter activation value has been reported?
**A:** 29.7

**Q:** Suppose we examine the molecule Cc1cc(C)nc(/N=C(\N)Nc2ccc(OCc3ccccc3)cc2)n1 ; what ERSE-FLuc reporter activation value has been reported?
**A:** 53.1

**Q:** For the molecule shown here, CCOc1cccc(C(=O)Nc2ccc(-c3nc4ccc(C(=O)c5ccccc5)cc4[nH]3)cc2)c1 , give the reported ERSE-FLuc reporter activation.
**A:** 28.6

**Q:** So what's the measured ERSE-FLuc reporter activation for this one? CCCNC(=O)c1ccc2nc(-c3ccc4[nH]ccc4c3)sc2c1
**A:** 33.4
